# TARGET_OR_SYSTEM: ΔF508 CFTR (Homo sapiens, UniProt P13569, DEL508-508)
# Sequence (P13569 with tags, fused parts or gaps DEL508-508): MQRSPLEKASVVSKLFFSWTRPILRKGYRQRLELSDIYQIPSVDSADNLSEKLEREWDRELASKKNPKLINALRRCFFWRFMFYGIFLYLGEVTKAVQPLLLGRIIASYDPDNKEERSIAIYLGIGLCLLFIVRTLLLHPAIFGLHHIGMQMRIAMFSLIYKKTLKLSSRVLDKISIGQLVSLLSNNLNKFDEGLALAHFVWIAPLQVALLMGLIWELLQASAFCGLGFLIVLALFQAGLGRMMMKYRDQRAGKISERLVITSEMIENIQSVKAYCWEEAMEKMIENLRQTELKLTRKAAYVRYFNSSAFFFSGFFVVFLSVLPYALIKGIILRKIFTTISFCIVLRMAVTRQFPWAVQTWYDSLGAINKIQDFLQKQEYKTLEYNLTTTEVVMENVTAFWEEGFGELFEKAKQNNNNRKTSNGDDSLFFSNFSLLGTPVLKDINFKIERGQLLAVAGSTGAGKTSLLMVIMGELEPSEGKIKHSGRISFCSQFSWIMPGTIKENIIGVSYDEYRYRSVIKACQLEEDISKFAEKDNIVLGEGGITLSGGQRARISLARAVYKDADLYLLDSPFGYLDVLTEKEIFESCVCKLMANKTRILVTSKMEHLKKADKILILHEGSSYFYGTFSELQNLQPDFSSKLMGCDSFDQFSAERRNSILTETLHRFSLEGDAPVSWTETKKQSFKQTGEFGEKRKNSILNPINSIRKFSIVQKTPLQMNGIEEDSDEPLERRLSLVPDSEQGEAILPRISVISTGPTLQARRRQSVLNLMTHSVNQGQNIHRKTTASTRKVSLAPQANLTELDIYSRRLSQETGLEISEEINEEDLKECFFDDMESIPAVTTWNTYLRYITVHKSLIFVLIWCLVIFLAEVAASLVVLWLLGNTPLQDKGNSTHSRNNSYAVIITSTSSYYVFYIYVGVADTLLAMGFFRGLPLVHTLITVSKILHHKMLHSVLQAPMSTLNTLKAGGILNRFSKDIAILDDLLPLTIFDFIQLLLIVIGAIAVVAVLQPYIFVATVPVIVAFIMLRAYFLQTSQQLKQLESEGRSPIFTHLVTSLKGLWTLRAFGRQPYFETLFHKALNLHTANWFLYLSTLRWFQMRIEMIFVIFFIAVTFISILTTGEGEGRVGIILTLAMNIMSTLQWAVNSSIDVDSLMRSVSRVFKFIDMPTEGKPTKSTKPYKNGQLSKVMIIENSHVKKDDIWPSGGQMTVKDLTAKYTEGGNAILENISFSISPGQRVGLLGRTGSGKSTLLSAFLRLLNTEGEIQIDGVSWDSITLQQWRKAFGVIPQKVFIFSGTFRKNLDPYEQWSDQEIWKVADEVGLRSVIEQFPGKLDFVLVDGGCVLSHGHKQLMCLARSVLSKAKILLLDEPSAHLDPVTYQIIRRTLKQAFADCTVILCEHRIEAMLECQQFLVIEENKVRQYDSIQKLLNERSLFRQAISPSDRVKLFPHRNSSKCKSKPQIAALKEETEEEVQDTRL
# ASSAY_METHOD_TEXT: Potentiator activity, YFP halide (iodide) quenching assay in FRT cells expressing ΔF508 CFTR, 27° C. pre-incubation
# Format: cell-based
# Design: expressed in transfected cells; host or cells: Fischer rat thyroid (FRT) cells
# STUDY_CONDITIONS: FRT cells ΔF508 CFTR/YFP, 24 hours at 27° C., compound with forskolin 30 min
Form field: EC50 (one value per entry).

MOLECULE | TARGET_OR_SYSTEM | ASSAY_RESULT
CCn1cc(-c2ccc(Cl)cc2)c2c(NC(=O)C3CCCC3)ncnc21 | ΔF508 CFTR (Homo sapiens, UniProt P13569, DEL508-508) | > 15 µM
CC(C)(C)n1nc(Oc2cccc(Oc3ccccc3)c2)c2c(N)ncnc21 | ΔF508 CFTR (Homo sapiens, UniProt P13569, DEL508-508) | < 2 µM
CCn1nc(-c2ccc(Cl)cc2)c2c(N)ncnc21 [compound 67] | ΔF508 CFTR (Homo sapiens, UniProt P13569, DEL508-508) | 2 to 5 µM
CC(C)(C)n1nc([S+]([O-])c2ccccc2)c2c(N)ncnc21 (centres unmarked) | ΔF508 CFTR (Homo sapiens, UniProt P13569, DEL508-508) | > 15 µM

Task: // query EC50 value for entry Nc1ncnc2[nH]nc(Oc3cccc(Cl)c3)c12
Output: > 15 µM

====

# TARGET_OR_SYSTEM: ΔF508 CFTR (Homo sapiens, UniProt P13569, DEL508-508)
# ASSAY_METHOD_TEXT: Corrector activity, YFP halide (iodide) quenching assay in FRT cells expressing ΔF508 CFTR
# Assay type: cell-based
# Design: expressed in transfected cells; host or cells: Fischer rat thyroid (FRT) cells
# STUDY_CONDITIONS: FRT cells ΔF508 CFTR/YFP, 24 hours with compound at 37° C., forskolin and genistein; read-out: Corrector EC50
VALUE_KIND: EC50

These solved cases illustrate the format of a correct answer.
COMPOUND | TARGET_OR_SYSTEM | ASSAY_RESULT
CC(=O)N1CCC(n2nc(Oc3ccccc3)c3c(N)ncnc32)CC1 [compound 420] | ΔF508 CFTR (Homo sapiens, UniProt P13569, DEL508-508) | > 15 µM
CC(C)(C)n1cc(-c2cccc(Cl)c2)c2c(NC(=O)C3CCCC3)ncnc21 [compound 367] | ΔF508 CFTR (Homo sapiens, UniProt P13569, DEL508-508) | 5 to 10 µM
Nc1ncnc2c1c(-c1ccc(Cl)cc1)cn2CC1CC1 [Compound No. 242] | ΔF508 CFTR (Homo sapiens, UniProt P13569, DEL508-508) | < 2 µM
CC(C)C(=O)N(C(=O)C(C)C)c1ncnc2c1c(Br)nn2C(C)(C)C [compound 426] | ΔF508 CFTR (Homo sapiens, UniProt P13569, DEL508-508) | 5 to 10 µM

Task: Checklist item: EC50 tested on ΔF508 CFTR (Homo sapiens, UniProt P13569, DEL508-508), entry CC(=O)N1CC(n2nc(-c3ccc(Cl)cc3)c3c(N)ncnc32)C1 [Compound No. 295] , value?
Output: > 15 µM

====

# TARGET_OR_SYSTEM: ΔF508 CFTR (Homo sapiens, UniProt P13569, DEL508-508)
# ASSAY_METHOD_TEXT: Corrector activity, YFP halide (iodide) quenching assay in FRT cells expressing ΔF508 CFTR
# Type: cell-based
# Design: expressed in transfected cells; host or cells: Fischer rat thyroid (FRT) cells
# STUDY_CONDITIONS: FRT cells ΔF508 CFTR/YFP, 24 hours with compound at 37° C., forskolin and genistein; read-out: Corrector EC50
pEC50: −log10 of the molar value.
Form field: pEC50 (one value per entry).

These solved cases illustrate the format of a correct answer.
COMPOUND | ASSAY_RESULT
CC(C)N1CC(n2nc(-c3ccc(Cl)cc3)c3c(N)ncnc32)C1 [Compound No. 304] | 5.00 to 5.30
CCC(=O)Nc1ncnc2c1c(-c1cccc(Cl)c1)cn2C(C)(C)C [compound 368] | 5.00 to 5.30
CCn1nc(Sc2cc(F)cc(F)c2)c2c(N)ncnc21 [compound 264] | < 4.82

Task: // query pEC50 value for entry CC(C)(C)n1nc(Sc2ccccc2)c2c(N)ncnc21 [compound 172]
Output: < 4.82

Task: // query pEC50 value for entry CC(C)(C)n1nc(-c2cc3ccccc3s2)c2c(N)ncnc21 [compound 16]
Output: < 4.82

Task: // query pEC50 value for entry CC(C)(C)OC(=O)N1CC(n2nc([S+]([O-])c3ccccc3)c3c(N)ncnc32)C1 (stereo not drawn) [compound 385]
Output: < 4.82

Task: // query pEC50 value for entry CC(C)(C)n1nc(Oc2cccc(Oc3ccccc3)c2)c2c(N)ncnc21 [compound 189]
Output: < 4.82

Task: // query pEC50 value for entry Nc1ncnc2c1c(Oc1ccccc1)nn2C1CCNCC1 [compound 417]
Output: < 4.82

Task: // query pEC50 value for entry CC(C)(C)n1cc(-c2ccc(Cl)cc2)c2c(NC(=O)C3CCCC3)ncnc21 [compound 321]
Output: > 5.70

====

# TARGET_OR_SYSTEM: ΔF508 CFTR (Homo sapiens, UniProt P13569, DEL508-508)
# ASSAY_METHOD_TEXT: Corrector activity, YFP halide (iodide) quenching assay in FRT cells expressing ΔF508 CFTR
# Type: cell-based
# Design: expressed in transfected cells; host or cells: Fischer rat thyroid (FRT) cells
# STUDY_CONDITIONS: FRT cells ΔF508 CFTR/YFP, 24 hours with compound at 37° C., forskolin and genistein; read-out: Corrector EC50
pEC50: −log10 of the molar value.
VALUE_KIND: pEC50

These solved cases illustrate the format of a correct answer.
STRUCTURE | ASSAY_RESULT
CCn1cc(Sc2ccccc2)c2c(N)ncnc21 | 5.30 to 5.70
CC(C)(C)n1nc(-c2ccc(F)cc2)c2c(NC(=O)c3ccccc3)ncnc21 | < 4.82
CCn1cc(-c2ccc(Cl)cc2)c2c(NC(=O)C(C)(C)C)ncnc21 | 5.30 to 5.70
CC(C)C(=O)Nc1ncnc2c1c(-c1ccc(Cl)cc1)cn2C(C)C | > 5.70

// next item, pEC50 requested
Task: // query pEC50 value for entry CC(C)(C)n1nc(Oc2cccc3c2CCCC3)c2c(N)ncnc21
Output: < 4.82

====

# TARGET_OR_SYSTEM: ΔF508 CFTR (Homo sapiens, UniProt P13569, DEL508-508)
# ASSAY_METHOD_TEXT: Corrector activity, YFP halide (iodide) quenching assay in FRT cells expressing ΔF508 CFTR
# Format: cell-based
# Parameters: expressed in transfected cells; host or cells: Fischer rat thyroid (FRT) cells
# STUDY_CONDITIONS: FRT cells ΔF508 CFTR/YFP, 24 hours with compound at 37° C., forskolin and genistein; read-out: Corrector EC50
VALUE_KIND: EC50

COMPOUND | TARGET_OR_SYSTEM | EC50
COC(=O)n1nc(-c2ccc(Cl)cc2)c2c(N)ncnc21 | ΔF508 CFTR (Homo sapiens, UniProt P13569, DEL508-508) | > 15 µM

Task: // query EC50 value for entry CC(C)(C)n1nc(-c2ccc(Cl)cc2)c2c(NC(=O)NCc3ccccc3)ncnc21
Output: > 15 µM

Task: // query EC50 value for entry Cc1cccc(Oc2nn(C(C)(C)C)c3ncnc(N)c23)c1C
Output: > 15 µM

====

Form field: pEC50 (one value per entry).
# TARGET_OR_SYSTEM: ΔF508 CFTR (Homo sapiens, UniProt P13569, DEL508-508)
# ASSAY_METHOD_TEXT: Potentiator activity, YFP halide (iodide) quenching assay in FRT cells expressing ΔF508 CFTR, 27° C. pre-incubation
# Assay type: cell-based
# Set-up: expressed in transfected cells; host or cells: Fischer rat thyroid (FRT) cells
# STUDY_CONDITIONS: FRT cells ΔF508 CFTR/YFP, 24 hours at 27° C., compound with forskolin 30 min
pEC50: −log10 of the molar value.

COMPOUND | TARGET_OR_SYSTEM | pEC50
CCn1nc(-c2ccc(N=[N+]=[N-])cc2)c2c(N)ncnc21 [compound 170] | ΔF508 CFTR (Homo sapiens, UniProt P13569, DEL508-508) | < 4.82
CCn1nc([S+]([O-])c2ccc(C)cc2)c2c(N)ncnc21 (centres unmarked) [compound 291] | ΔF508 CFTR (Homo sapiens, UniProt P13569, DEL508-508) | < 4.82
Nc1ncnc2c1c(-c1ccc(Cl)cc1)cn2CC(F)F [compound 290] | ΔF508 CFTR (Homo sapiens, UniProt P13569, DEL508-508) | 5.30 to 5.70
CC(=O)Nc1ncnc2c1c(-c1ccc(Cl)cc1)nn2C(C)(C)C [Compound No. 2] | ΔF508 CFTR (Homo sapiens, UniProt P13569, DEL508-508) | > 5.70
CCn1nc([S+]([O-])c2cccc(Cl)c2)c2c(N)ncnc21 (centres unmarked) [compound 279] | ΔF508 CFTR (Homo sapiens, UniProt P13569, DEL508-508) | < 4.82
C=CCn1cc(-c2ccc(Cl)cc2)c2c(N)ncnc21 [compound 311] | ΔF508 CFTR (Homo sapiens, UniProt P13569, DEL508-508) | 5.00 to 5.30
CCOC(=O)N1CC(n2nc(-c3ccc(Cl)cc3)c3c(N)ncnc32)C1 [compound 270] | ΔF508 CFTR (Homo sapiens, UniProt P13569, DEL508-508) | < 4.82

Task: // query pEC50 value for entry COc1nn(C(C)(C)C)c2ncnc(N)c12 [compound 312]
Output: 5.00 to 5.30
